# System: primary rat mixed cortical cells
# test: In vitro myelination assay (MBP positive myelin strands, fold myelin pixels above background)
# Assay type: cell-based
# condition.set: Rattus norvegicus, 10.0 μM compound, relative to baseline of no added compound; read-out: Fold myelin pixels above background, 10.0 μM
Measured fold induction at 10 µM of individual entries

fold induction at 10 µM in this record for COCc1cc(-n2cnc(Nc3cc(C4CC4)cc(N4CCN(C5COC5)CC4)c3)n2)ncn1 : 100 to 1000

###

# Tested on: primary rat mixed cortical cells
# test: In vitro myelination assay (MBP positive myelin strands, fold myelin pixels above background)
# Assay type: cell-based
# condition.set: Rattus norvegicus, 10.0 μM compound, relative to baseline of no added compound; read-out: Fold myelin pixels above background, 10.0 μM
# From the text: In Vitro Myelination Assay Compounds were screened for their ability to induce myelination using a primary rat mixed cortical cell culture assay, which contains neurons, oligodendrocyte precursor cells, oligodendrocytes, astrocytes and microglia. […] The myelin strands were quantitated using a custom created myelin detection software program. […]
Listed here are compounds together with their documented fold induction at 10 µM.

{"compound": "Cc1cc(Nc2ncn(-c3cc(F)cc(F)c3)n2)cc(N2CCNCC2)c1", "fold induction at 10 µM": "≤ 1"}
{"compound": "COCC1CCN(c2cc(C)cc(Nc3ncn(-c4cc(F)cc(F)c4)n3)c2)CC1", "fold induction at 10 µM": "≤ 1"}
{"compound": "CCc1cc(Nc2ncn(-c3ccc(C)cc3)n2)cc(N2CCN(C3COC3)CC2)c1", "fold induction at 10 µM": "100 to 1000"}
{"compound": "COc1cc(Nc2ncn(-c3cccc(F)c3)n2)cc(N2CCN(C3COC3)CC2)c1", "fold induction at 10 µM": "1 to 10"}
{"compound": "Cc1cc(Nc2ncn(-c3ccc(F)c(F)c3)n2)cc(N2CCC(C3COC3)CC2)c1", "fold induction at 10 µM": "1 to 10"}

Sure, the documented fold induction at 10 µM for Cc1cc(Nc2ncn(-c3ccnc(O)c3)n2)cc(N2CCOCC2)c1 is 100 to 1000

# fold induction at 10 µM of Cc1cc(Nc2ncn(-c3cc(F)cc(F)c3)n2)cc(N2CCCC(N3CCCC3=O)C2)c1 (centres unmarked) = 10 to 100

Reported fold induction at 10 µM of COCC1CCN(c2cc(C)cc(Nc3ncn(-c4ccc(F)c(F)c4)n3)c2)CC1 : 10 to 100

# compound Cc1cc(Nc2ncn(-c3cnccn3)n2)cc(N2CCN(C3CC(F)(F)C3)CC2)c1 ; its fold induction at 10 µM = 100 to 1000

The compound listed as Fc1cc(Nc2ncn(-c3ccc(F)c(F)c3)n2)cc(N2CCCC2)c1 has a reported fold induction at 10 µM of ≤ 1

Recorded result, Cc1cc(Nc2ncn(-c3cc(F)cc(F)c3)n2)cc(C2CCNCC2)c1 , fold induction at 10 µM: ≤ 1

###

# Tested on: primary rat mixed cortical cells
# test: In vitro myelination assay (MBP positive myelin strands, fold myelin pixels above background)
# Format: cell-based
# condition.set: 10.0 μM compound
measurement.kind: Fold myelin pixels above background relative to baseline of no added compound

{"compound": "Cc1cc(Nc2ncn(-c3cccc(F)c3)n2)c(F)c(OC2CCOC2)c1 (single isomer, unassigned) [Compound 886]", "recorded.result": "+ (>1 to 10x)"}
{"compound": "Cc1cc(Nc2ncn(-c3cc(F)cc(F)c3)n2)cc(N2CCOC(C3CCCO3)C2)c1 (stereo not shown)", "recorded.result": "+ (>1 to 10x)"}
{"compound": "Cc1cc(Nc2ncn(-c3ccccc3)n2)c(F)c(OC2CCOC2)c1 (single isomer, unassigned)", "recorded.result": "++ (>10 to 100x)"}
{"compound": "Cc1cc(Nc2ncn(-c3cccc(F)c3)n2)c(F)c(OC2CCOC2)c1 (single isomer, unassigned) [Compound 1061]", "recorded.result": "++ (>10 to 100x)"}
